- System: MRSA isolates
- assay-method-text: MIC/MBC, CLSI broth microdilution, MRSA isolates
- Assay type: cell-based, Staphylococcus aureus
- condition: Staphylococcus aureus, MRSA, pH 5.5, MRSA 0646, pH 5.5
observation-type: MBC

[
  {
    "compound": "Oc1c(Br)cc(Br)cc1-c1cc(Br)cc(Br)c1O",
    "observation-type": "MBC",
    "result": "1 mg/L"
  },
  {
    "compound": "Oc1c(Cl)cc(Cl)cc1-c1cc(Cl)cc(Cl)c1O",
    "observation-type": "MBC",
    "result": "0.5 mg/L"
  },
  {
    "compound": "[Na+].[Na+].[O-]c1c(Cl)cc(Cl)cc1-c1cc(Cl)cc(Cl)c1[O-] [C59Na]",
    "observation-type": "MBC",
    "result": "0.25 mg/L"
  },
  {
    "compound": "[Li+].[Li+].[O-]c1c(Cl)cc(Cl)cc1-c1cc(Cl)cc(Cl)c1[O-] [C59Li]",
    "observation-type": "MBC",
    "result": "0.25 mg/L"
  },
  {
    "compound": "CN[C@H](CC(C)C)C(=O)N[C@H]1C(=O)N[C@@H](CC(N)=O)C(=O)N[C@H]2C(=O)N[C@H]3C(=O)N[C@H](C(=O)N[C@H](C(=O)O)c4cc(O)cc(O)c4-c4cc3ccc4O)[C@H](O)c3ccc(c(Cl)c3)Oc3cc2cc(c3O[C@@H]2O[C@H](CO)[C@@H](O)[C@H](O)[C@H]2O[C@H]2C[C@](C)(N)[C@H](O)[C@H](C)O2)Oc2ccc(cc2Cl)[C@H]1O [Vancomycin, vancomycin, reference compound]",
    "observation-type": "MBC",
    "result": "8 mg/L"
  }
]
